Value source: patent US8956445B2

Parameter l (dispersion forces): see the listing below.
# test: Solvation interaction parameters by inverse gas-liquid chromatography (Abraham solvation model)
# Format: physicochemical
# setup-conditions: 70° C.
Respond numerically, and do not add a unit to the figure.

Here is how some molecules turned out for l (dispersion forces).
- smiles-representation: "CCCCCCCCC[n+]1ccn(C)c1.O=S(=O)([N-]S(=O)(=O)C(F)(F)F)C(F)(F)F"
  l (dispersion forces): 0.63
- smiles-representation: "C[n+]1ccn(CCCCn2cc[n+](C)c2)c1.O=S(=O)([N-]S(=O)(=O)C(F)(F)F)C(F)(F)F.O=S(=O)([N-]S(=O)(=O)C(F)(F)F)C(F)(F)F"
  l (dispersion forces): 0.44
- smiles-representation: "Cn1cc[n+](CCCCCCCCC[n+]2ccn(C)c2)c1.O=S(=O)([N-]S(=O)(=O)C(F)(F)F)C(F)(F)F.O=S(=O)([N-]S(=O)(=O)C(F)(F)F)C(F)(F)F"
  l (dispersion forces): 0.51
- smiles-representation: "C[N+]1(CCCCCCCCC[N+]2(C)CCCC2)CCCC1.O=S(=O)([N-]S(=O)(=O)C(F)(F)F)C(F)(F)F.O=S(=O)([N-]S(=O)(=O)C(F)(F)F)C(F)(F)F"
  l (dispersion forces): 0.48

Please find the next molecule below.
Exercise: So what does the record say about l (dispersion forces) for "O=S(=O)([N-]S(=O)(=O)C(F)(F)F)C(F)(F)F.O=S(=O)([N-]S(=O)(=O)C(F)(F)F)C(F)(F)F.c1ccc(Cn2cc[n+](CCCCCCCCCCCC[n+]3ccn(Cc4ccccc4)c3)c2)cc1" ?
Key: 0.56

====

# test: Solvation interaction parameters by inverse gas-liquid chromatography (Abraham solvation model)
# Type: physicochemical
# setup-conditions: 100° C.
metric: s (dipolarity/polarizability)

Here is how some molecules turned out for s (dipolarity/polarizability).
- molecule: "O=S(=O)([N-]S(=O)(=O)C(F)(F)F)C(F)(F)F.O=S(=O)([N-]S(=O)(=O)C(F)(F)F)C(F)(F)F.c1ccc(Cn2cc[n+](CCCCCCCCCCCC[n+]3ccn(Cc4ccccc4)c3)c2)cc1 [C12(benzim)2-NTf2]"
  s (dipolarity/polarizability): 1.47
- molecule: "C[N+]1(CCCCCCCCC[N+]2(C)CCCC2)CCCC1.O=S(=O)([N-]S(=O)(=O)C(F)(F)F)C(F)(F)F.O=S(=O)([N-]S(=O)(=O)C(F)(F)F)C(F)(F)F [C9(mpy)2-NTf2]"
  s (dipolarity/polarizability): 1.49
- molecule: "C[n+]1ccn(CCCCn2cc[n+](C)c2)c1.O=S(=O)([N-]S(=O)(=O)C(F)(F)F)C(F)(F)F.O=S(=O)([N-]S(=O)(=O)C(F)(F)F)C(F)(F)F [C4(mim)2-NTf2]"
  s (dipolarity/polarizability): 1.69
- molecule: "Cn1cc[n+](CCCCCCCCC[n+]2ccn(C)c2)c1.O=S(=O)([N-]S(=O)(=O)C(F)(F)F)C(F)(F)F.O=S(=O)([N-]S(=O)(=O)C(F)(F)F)C(F)(F)F [C9(mim)2-NTf2]"
  s (dipolarity/polarizability): 1.64

Please find the next molecule below.
Exercise: So what does the record say about s (dipolarity/polarizability) for CCCCCCCCC[n+]1ccn(C)c1.O=S(=O)([N-]S(=O)(=O)C(F)(F)F)C(F)(F)F [nmim-NTf2] ?
Key: 1.52
